All values here come from patent US20180289620A1.

- protocol: Pharmacokinetics of Nab-2 in monkeys
- Type: in vivo
- conditions.used: male, cynomolgus monkey, blood, iv, 10 mg/kg, Nab-2 IV 10 mg/kg, read-out: Vss
measured.quantity: Vd (L/kg)
Entry rule: numbers only, all in L/kg.

Query: Bench note: what Vd did CCCCCC(=O)O[C@@H](C(=O)O[C@H]1C[C@@]2(O)[C@@H](OC(=O)c3ccccc3)C3[C@](C)(C(=O)[C@H](O)C(=C1C)C2(C)C)[C@@H](O)C[C@H]1OC[C@@]31OC(C)=O)[C@@H](NC(=O)OC(C)(C)C)c1ccccc1 (stereo partly shown) [Compound 2, 2′-Hexanoyl Docetaxel] show?
Reply: 8.12
